target-desc: UniProt P43220
Sequence (P43220 24-463): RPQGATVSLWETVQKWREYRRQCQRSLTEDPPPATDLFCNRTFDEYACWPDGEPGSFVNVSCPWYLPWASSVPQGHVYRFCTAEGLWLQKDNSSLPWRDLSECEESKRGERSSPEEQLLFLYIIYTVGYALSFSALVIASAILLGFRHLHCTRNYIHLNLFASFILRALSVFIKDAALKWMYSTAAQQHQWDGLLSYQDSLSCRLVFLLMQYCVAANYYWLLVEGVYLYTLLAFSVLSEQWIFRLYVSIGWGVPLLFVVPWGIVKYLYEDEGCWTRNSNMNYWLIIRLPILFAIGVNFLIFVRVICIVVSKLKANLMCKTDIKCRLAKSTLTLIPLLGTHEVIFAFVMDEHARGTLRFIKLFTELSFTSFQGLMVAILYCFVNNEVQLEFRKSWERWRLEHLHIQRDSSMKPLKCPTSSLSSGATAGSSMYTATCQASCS
protocol-notes: GLP-1R agonist cAMP stimulation assay (HTRF cAMP)
measurement-parameters: HEK293 cell line expressing GLP-1 target; HTRF cAMP agonist mode, 30 min at RT
I'd appreciate it if you could supply EC50 values for the items below.
# unit: nM | format: bare number

Item Cc1cc(NC(=O)c2ccc3c(c2)nc(CN2CCC(c4cccc(OCc5cc(F)c(C#N)s5)n4)CC2)n3C[C@@H]2CCO2)cc2c(C(F)(F)F)n[nH]c12 [Compound 377] has what recorded EC50?
3.41

Moving on to the next compound: Cc1n[nH]c2ccc(NC(=O)c3ccc4c(c3)nc(CN3CC=C(c5cccc6c5O[C@](C)(c5ccc(Cl)cc5F)O6)CC3)n4C[C@@H]3CCO3)cc12 [Compound 6]
1.21

Also N#Cc1ccc(COc2cccc(C3CCN(Cc4nc5cc(C(=O)Nc6cc(F)c7[nH]ncc7c6)ccc5n4C[C@@H]4CCO4)CC3)n2)c(F)c1 [Compound 129] , if possible.
1.14

# repeat for Cc1n[nH]c2c(F)cc(C(=O)Nc3ccc4c(c3)nc(CN3CC=C(c5cccc(OCc6ccc(C#N)cc6F)n5)CC3)n4C[C@@H]3CCO3)cc12 [Compound 225]
0.18

Further, for Cc1n[nH]c2c(C(F)(F)F)cc(C(=O)Nc3ccc4nc(CN5CC=C(c6cccc(OCc7ccc(Cl)cc7F)n6)CC5)n(CC5CCO5)c4c3)cc12 (centres unmarked) [Compound 287] ?
2.98

Please do the same for O=C(Nc1ccc2c(c1)nc(CN1CC=C(c3cccc(OCc4ccc(Cl)cc4F)n3)CC1)n2C[C@@H]1CCO1)c1ccc2[nH]nc(F)c2c1 [Compound 202] as well.
2.21

Can you check O=C(Nc1ccc2c(c1)nc(CN1CC=C(c3cccc(OCc4ccc(Cl)cc4F)n3)CC1)n2CC1CCO1)c1ccn2ncc(Cl)c2c1 (centres unmarked) [Compound 206] next?
5.91

Input O=C(Nc1ccn2nccc2c1)c1ccc2c(c1)nc(CN1CC=C(c3cccc(OCc4ccc(Cl)cc4F)n3)CC1)n2CC1CCO1 (centres unmarked) [Compound 148]
21.1

Follow-up entry: Cc1cc(C(=O)Nc2ccc3nc(CN4CC=C(c5cccc(OCc6ccc(Cl)cc6F)n5)CC4)n(C[C@@H]4CCO4)c3c2)cc2c1NC(=O)C21CC1 [Compound 282]
4.32

Also CC1(c2ccc(Cl)cc2F)Oc2cccc(C3=CCN(Cc4nc5cc(C(=O)Nc6ccc7[nH]nc(F)c7c6)ccc5n4CC4CCO4)CC3)c2O1 (centres unmarked) [Compound 328] , if possible.
12.7

Input Cc1cc(NC(=O)c2ccc3c(c2)nc(CN2CCC(c4cccc(OCc5ccc(Cl)cc5F)n4)CC2)n3C[C@@H]2CCO2)cc2cn[nH]c12 [Compound 80]
2.05

Next entry: Cc1n[nH]c2c(F)cc(C(=O)Nc3ccc4c(c3)nc(CN3CC=C(c5cccc6c5OC(C)(c5ccc(Cl)cc5F)O6)CC3)n4CC3CCO3)cc12 (centres unmarked) [Compound 304]
0.18

Field entry: Cc1nn(C)c2ccc(NC(=O)c3ccc4c(c3)nc(CN3CC=C(c5cccc(OCc6ccc(Cl)cc6F)n5)CC3)n4C[C@@H]3CCO3)cc12 [Compound 159]
9.74

Proceed to COCCn1c(CN2CCC(c3cccc(OCc4ccc(Cl)cc4F)n3)CC2)nc2cc(C(=O)NCCCn3ccnc3)ccc21 [Compound 16]
146

Similarly, Cc1n[nH]c2ccc(C(=O)Nc3ccc4c(c3)nc(CN3CC=C(c5cccc6c5OC(C)(c5ccc(Cl)cc5F)O6)CC3)n4CC3CCO3)cc12 (centres unmarked) [Compound 306] ?
0.56

Queued: Cc1c[nH]c2c(C)cc(C(=O)Nc3ccc4c(c3)nc(CN3CC=C(c5cccc(OCc6ccc(Cl)cc6F)n5)CC3)n4C[C@@H]3CCO3)cc12 [Compound 390]
5.21

Also, O=C(NCC(=O)N1CC[C@@H](O)C1)c1ccc2c(c1)nc(CN1CCC(c3cccc(OCc4ccc(Cl)cc4F)n3)CC1)n2C[C@@H]1CCO1 [Compound 77] please.
1.9

Now give it for N#Cc1ccc(COc2cccc(C3=CCN(Cc4nc5cc(C(=O)Nc6ccc7[nH]nc(C(F)(F)F)c7c6)ccc5n4C[C@@H]4CCO4)CC3)n2)c(F)c1 [Compound 184] too.
1.57

And Fc1cc(Cl)ccc1COc1cccc(C2=CCN(Cc3nc4cc(-c5nc(-c6cc(C(F)(F)F)[nH]n6)co5)ccc4n3C[C@@H]3CCO3)CC2)n1 [Compound 398] ?
110

And then CCn1cncc1Cn1c(Cc2cc(F)c(-c3cccc(OCc4ccc(Cl)cc4F)n3)cc2F)nc2cc(NC(=O)c3cc(F)c4[nH]nc(C)c4c3)ccc21 [Compound 414] , what is it?
0.57

Try O=C(Nc1ccc2c(c1)nc(CN1CCC(c3cccc(OCc4ccc(Cl)cc4F)n3)CC1)n2C[C@@H]1CCO1)c1ccc2[nH]c(=O)[nH]c2c1 [Compound 85] next.
0.41
